Test system: HOP-62
Test name: NCI 60 cell one-dose screening (SRB)
Assay type: cell-based
Condition info: Homo sapiens; HOP-62, Non-Small Cell Lung Cancer; single dose 10 µM, 48 h; read-out: Percentage of cellular growth inhibition
Hi there, I'd appreciate the recorded inhibition at 10 µM for every entry that follows.
Answers are plain numbers, in %.

Some solved cases for reference:
CC(=O)c1sc(Nc2cccc(Nc3nc(C)c(C(C)=O)s3)c2)nc1C: 22.2
c1ccc(/N=c2\scc(-c3ccccc3)n2-c2cccc(-n3c(-c4ccccc4)cs/c3=N\c3ccccc3)c2)cc1: -12.6

In the following, a different molecule is considered.
Value of measured inhibition at 10 µM for the entry Fc1ccc(-c2cs/c(=N\c3ccccc3)n2-c2cccc(-n3c(-c4ccc(F)cc4)cs/c3=N\c3ccccc3)c2)cc1 : -4.6

* * *

System: CCRF-CEM
Test name: NCI 60 cell one-dose screening (SRB)
Format: cell-based
Condition info: Homo sapiens, Leukemia, single dose 10 µM, 48 h, read-out: Percentage of cellular growth inhibition
Hi there, I'd appreciate the recorded inhibition at 10 µM for every entry that follows.
Numbers only, in %.

c1ccc(/N=c2\scc(-c3ccccc3)n2-c2cccc(-n3c(-c4ccccc4)cs/c3=N\c3ccccc3)c2)cc1: -0.9

I would be grateful if you could provide inhibition at 10 µM for each of the following entries.
1. Clc1ccc(-c2cs/c(=N\c3ccccc3)n2-c2cccc(-n3c(-c4ccc(Cl)cc4)cs/c3=N\c3ccccc3)c2)cc1
2. Fc1ccc(-c2csc(Nc3cccc(Nc4nc(-c5ccc(F)cc5)cs4)c3)n2)cc1
3. Cc1csc(Nc2cccc(Nc3nc(C)cs3)c2)n1
4. Fc1ccc(-c2cs/c(=N\c3ccccc3)n2-c2cccc(-n3c(-c4ccc(F)cc4)cs/c3=N\c3ccccc3)c2)cc1
5. Cc1nc(Nc2cccc(Nc3nc(C)c(N=Nc4ccccc4)s3)c2)sc1N=Nc1ccccc1

Output line:
1. 32.6
2. 40.9
3. 1.5
4. 35.2
5. 12.3

Value of measured inhibition at 10 µM for the entry CC(=O)c1sc(Nc2cccc(Nc3nc(C)c(C(C)=O)s3)c2)nc1C : 38.8

* * *

Test system: SW-620
Test name: NCI 60 cell one-dose screening (SRB)
Assay type: cell-based
Condition info: Homo sapiens; SW-620, Colon Cancer; single dose 10 µM, 48 h; read-out: Percentage of cellular growth inhibition
Rule: inhibition at 10 µM under 10% gives no, otherwise yes.

Sample answers from the record:
Cc1csc(Nc2cccc(Nc3nc(C)cs3)c2)n1 [3a]: no
c1ccc(-c2csc(Nc3cccc(Nc4nc(-c5ccccc5)cs4)c3)n2)cc1 [6a]: yes
CCOC(=O)c1sc(Nc2cccc(Nc3nc(C)c(C(=O)OCC)s3)c2)nc1C [3c]: yes
Clc1ccc(-c2csc(Nc3cccc(Nc4nc(-c5ccc(Cl)cc5)cs4)c3)n2)cc1 [6c]: no
S=C(Nc1ccccc1)Nc1cccc(NC(=S)Nc2ccccc2)c1 [compound 7]: no
Fc1ccc(-c2csc(Nc3cccc(Nc4nc(-c5ccc(F)cc5)cs4)c3)n2)cc1 [6b]: yes
Fc1ccc(-c2cs/c(=N\c3ccccc3)n2-c2cccc(-n3c(-c4ccc(F)cc4)cs/c3=N\c3ccccc3)c2)cc1 [8b]: yes
Cc1nc(Nc2cccc(Nc3nc(C)c(N=Nc4ccccc4)s3)c2)sc1N=Nc1ccccc1 [5a]: no
Clc1ccc(-c2cs/c(=N\c3ccccc3)n2-c2cccc(-n3c(-c4ccc(Cl)cc4)cs/c3=N\c3ccccc3)c2)cc1 [8c]: yes
c1ccc(/N=c2\scc(-c3ccccc3)n2-c2cccc(-n3c(-c4ccccc4)cs/c3=N\c3ccccc3)c2)cc1 [8a]: no

Input line: Decide: inhibition at 10 µM of NC(=S)Nc1cccc(NC(N)=S)c1 [compound 2, 1,1′-(1,3-phenylene)bis(thiourea)] >= 10%?
Output line: no

Input line: Decide: inhibition at 10 µM of CC(=O)c1sc(Nc2cccc(Nc3nc(C)c(C(C)=O)s3)c2)nc1C [3b] >= 10%?
Output line: yes

* * *

Hi there, I'd appreciate the recorded inhibition at 10 µM for every entry that follows.
System: HL-60(TB)
Test name: NCI 60 cell one-dose screening (SRB)
Assay type: cell-based
Condition info: Homo sapiens, Leukemia, single dose 10 µM, 48 h, read-out: Percentage of cellular growth inhibition
Give bare numbers, in %.

Some solved cases for reference:
Cc1csc(Nc2cccc(Nc3nc(C)cs3)c2)n1: 18.2
S=C(Nc1ccccc1)Nc1cccc(NC(=S)Nc2ccccc2)c1: -2.5
NC(=S)Nc1cccc(NC(N)=S)c1: 0.9
CCOC(=O)c1sc(Nc2cccc(Nc3nc(C)c(C(=O)OCC)s3)c2)nc1C: 22.7
Cc1nc(Nc2cccc(Nc3nc(C)c(N=Nc4ccccc4)s3)c2)sc1N=Nc1ccccc1: 5.5

I would be grateful if you could provide inhibition at 10 µM for each of the following entries.
1. Clc1ccc(-c2csc(Nc3cccc(Nc4nc(-c5ccc(Cl)cc5)cs4)c3)n2)cc1
2. Clc1ccc(-c2cs/c(=N\c3ccccc3)n2-c2cccc(-n3c(-c4ccc(Cl)cc4)cs/c3=N\c3ccccc3)c2)cc1
3. c1ccc(-c2csc(Nc3cccc(Nc4nc(-c5ccccc5)cs4)c3)n2)cc1
4. c1ccc(/N=c2\scc(-c3ccccc3)n2-c2cccc(-n3c(-c4ccccc4)cs/c3=N\c3ccccc3)c2)cc1
5. Fc1ccc(-c2cs/c(=N\c3ccccc3)n2-c2cccc(-n3c(-c4ccc(F)cc4)cs/c3=N\c3ccccc3)c2)cc1
6. CC(=O)c1sc(Nc2cccc(Nc3nc(C)c(C(C)=O)s3)c2)nc1C
7. Fc1ccc(-c2csc(Nc3cccc(Nc4nc(-c5ccc(F)cc5)cs4)c3)n2)cc1

Output line:
14.6
41.8
34.1
-4.4
15.8
65.8
25.7

* * *

Test system: SF-268
Test name: NCI 60 cell one-dose screening (SRB)
Type: cell-based
Condition info: Homo sapiens; SF-268, CNS Cancer; single dose 10 µM, 48 h; read-out: Percentage of cellular growth inhibition
Experimental endpoint: inhibition at 10 µM (%)
Numbers only, in %.

I would be grateful if you could provide inhibition at 10 µM for each of the following entries.
1. c1ccc(/N=c2\scc(-c3ccccc3)n2-c2cccc(-n3c(-c4ccccc4)cs/c3=N\c3ccccc3)c2)cc1 [8a]
2. S=C(Nc1ccccc1)Nc1cccc(NC(=S)Nc2ccccc2)c1 [compound 7]
3. Fc1ccc(-c2cs/c(=N\c3ccccc3)n2-c2cccc(-n3c(-c4ccc(F)cc4)cs/c3=N\c3ccccc3)c2)cc1 [8b]

Output line:
0.3
3.3
8.7

* * *

System: M14
Test name: NCI 60 cell one-dose screening (SRB)
Type: cell-based
Condition info: Homo sapiens; M14, Melanoma; single dose 10 µM, 48 h; read-out: Percentage of cellular growth inhibition
Rule: inhibition at 10 µM under 30% gives criterion not met, otherwise criterion met.

Sample answers from the record:
Fc1ccc(-c2cs/c(=N\c3ccccc3)n2-c2cccc(-n3c(-c4ccc(F)cc4)cs/c3=N\c3ccccc3)c2)cc1: criterion not met
NC(=S)Nc1cccc(NC(N)=S)c1: criterion not met
c1ccc(-c2csc(Nc3cccc(Nc4nc(-c5ccccc5)cs4)c3)n2)cc1: criterion met
Cc1nc(Nc2cccc(Nc3nc(C)c(N=Nc4ccccc4)s3)c2)sc1N=Nc1ccccc1: criterion not met
CC(=O)c1sc(Nc2cccc(Nc3nc(C)c(C(C)=O)s3)c2)nc1C: criterion met
Clc1ccc(-c2cs/c(=N\c3ccccc3)n2-c2cccc(-n3c(-c4ccc(Cl)cc4)cs/c3=N\c3ccccc3)c2)cc1: criterion not met

Then there is this compound:
Input line: Decide: inhibition at 10 µM of c1ccc(/N=c2\scc(-c3ccccc3)n2-c2cccc(-n3c(-c4ccccc4)cs/c3=N\c3ccccc3)c2)cc1 >= 30%?
Output line: criterion not met

* * *

System: OVCAR-5
Test name: NCI 60 cell one-dose screening (SRB)
Format: cell-based
Condition info: Homo sapiens; OVCAR-5, Ovarian Cancer; single dose 10 µM, 48 h; read-out: Percentage of cellular growth inhibition
Hi there, I'd appreciate the recorded inhibition at 10 µM for every entry that follows.
Answers are plain numbers, in %.

Some solved cases for reference:
Cc1csc(Nc2cccc(Nc3nc(C)cs3)c2)n1: 7.1
CCOC(=O)c1sc(Nc2cccc(Nc3nc(C)c(C(=O)OCC)s3)c2)nc1C: 8
Cc1nc(Nc2cccc(Nc3nc(C)c(N=Nc4ccccc4)s3)c2)sc1N=Nc1ccccc1: 19.8

In the following, a different compound is considered.
Value of measured inhibition at 10 µM for the entry c1ccc(/N=c2\scc(-c3ccccc3)n2-c2cccc(-n3c(-c4ccccc4)cs/c3=N\c3ccccc3)c2)cc1 : -2.9

* * *

Target under test: Pim1 kinase (Homo sapiens, UniProt P11309)
Sequence (P11309 whole entry): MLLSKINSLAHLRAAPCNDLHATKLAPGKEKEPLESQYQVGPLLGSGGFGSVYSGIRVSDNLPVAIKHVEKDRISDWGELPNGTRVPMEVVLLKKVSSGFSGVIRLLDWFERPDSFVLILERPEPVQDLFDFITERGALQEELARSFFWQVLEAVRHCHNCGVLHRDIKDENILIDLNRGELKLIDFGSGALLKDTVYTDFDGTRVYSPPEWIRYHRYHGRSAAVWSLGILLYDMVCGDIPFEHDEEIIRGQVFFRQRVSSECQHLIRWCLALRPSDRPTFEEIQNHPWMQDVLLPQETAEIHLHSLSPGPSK
Experimental endpoint: IC50 (nM)
Answers are plain numbers, in nM.

Some solved cases for reference:
CC(=O)c1sc(Nc2cccc(Nc3nc(C)c(C(C)=O)s3)c2)nc1C [3b]: 320
Fc1ccc(-c2csc(Nc3cccc(Nc4nc(-c5ccc(F)cc5)cs4)c3)n2)cc1 [6b]: 2950
Fc1ccc(-c2cs/c(=N\c3ccccc3)n2-c2cccc(-n3c(-c4ccc(F)cc4)cs/c3=N\c3ccccc3)c2)cc1 [8b]: 240

In the following, a different molecule is considered.
Value of measured IC50 for the entry c1ccc(-c2csc(Nc3cccc(Nc4nc(-c5ccccc5)cs4)c3)n2)cc1 [6a] : 2020
